# experiment-notes: NCI Yeast Anticancer Drug Screen. Data for the rad50 strain (AID 155);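 further: 0% = growth of vehicle-only cultures of the same strain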
# condition: S. cerevisiae rad50 strain growth inhibition; at 50.0 µM; stronger effect = higher value
# Procedure: Growth inhibition of yeast strains with defined genetic alterations is measured as a screen for potential anti-cancer activity. Selected strains with alterations in DNA damage repair or cell cycle control were exposed to compounds and growth inhibition was measured relative to vehicle treated controls. The strain used in this assay is rad50
The panel holds about 79,000 compounds, 15% with a hit somewhere; the sample as a whole holds those more often.

| compound | growth inhibition (%) |
| --- | --- |
| CCNC(=O)OCCN1C(=O)C2C3CCC(O3)C2C1=O (configuration not stated) | 5.25 |
| COC(=O)Cc1onc(-c2ccccc2)c1[N+](=O)[O-] | -17.3 |
| Nc1c(OCc2ccccc2)cccc1C(=O)O | -7.1 |
| Cc1cccc(/C=N\N=C\c2cccc(C)n2)n1 | 3.9 |
| CCSc1nnc(-c2ccccc2)nc1Cc1ccc(OC)cc1 | -38.2 |
| Cc1nnc(N=Nc2c(O)[nH]c3ccccc23)[nH]c1=O | 7.05 |
| O=C1C=CC2(C=C1)OCC(=O)O2 | 6.15 |
| Clc1ccc2ncccc2c1 | 29.8 |
| Cn1c(=S)sc2ccc(S(=O)(=O)C(F)F)cc21 | 23.7 |
| CCSC1OC(C(O)CO)C(O)C1NC(=O)C(F)(F)F (configuration not stated) | 5.65 |
| CC(C(=O)OCc1ccccc1)(c1ccco1)N1C(=O)OC(c2ccccc2)C1c1ccccc1 (configuration not stated) | -4.35 |
| O=C(OC(CN1CCCCC1)CN1CCCc2ccccc21)C(O)C(O)C(O)(CO)C(=O)OC(CN1CCCCC1)CN1CCCc2ccccc21 (configuration not stated) | 15.4 |

----------
# experiment-notes: NCI Yeast Anticancer Drug Screen. Data for the sgs1 mgt1 strain (AID 161);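 further: 0% = growth of cultures given vehicle only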
# condition: S. cerevisiae sgs1 mgt1 strain, at 50.0 µM, stronger effect = higher value
About 79,000 compounds went through this panel and 15% of them were active in at least one assay; those are over-represented in the sample as a whole.
Overview of reported growth inhibition across a group of molecules:

| molecule | growth inhibition [%] |
| --- | --- |
| O=C(NC(O)(C(F)(F)F)C(F)(F)F)c1ccccc1 | 10.7 |
| CCCCONC(N)=O | -23.4 |
| CC(=N/Nc1ccc([N+](=O)[O-])cc1[N+](=O)[O-])/C(C)=C/C1C=CCCC1(C)C (stereo not given) | 8.5 |
| CN(C)CCCn1ncc(Sc2cc([N+](=O)[O-])ccc2N)c(Cl)c1=O | -12.3 |
| CCOC(=O)C(O)C(O)C(O)C(O)C(=O)OCC (stereo not given) | 1.9 |
| COC(=O)c1nc(N)nc(C(=O)OC)c1C(=O)c1c(C)[nH]c2ccccc12 | -36.9 |
| NC(N)=NC(N)=Nc1ccc(-c2ccc(N=C(N)N=C(N)N)cc2)cc1 | -0.7 |
| CC(C)(Oc1ccc(/C=C/C(=O)c2ccc(Cl)cc2)cc1)C(=O)Nc1c(Cl)cccc1Cl | 2.6 |
| CC(C)CCC[C@@H](C)[C@H]1CC[C@@]2(C)C3=C(C(=O)C[C@]12C)[C@@]1(C)CC[C@H](O)C(C)(C)[C@@H]1CC3=O | 17.1 |
| CCN(CC)C(=O)c1c2nc3c(C(=O)N(CC)CC)ccc(C)c3oc-2c(C)c(=O)c1N | 7.85 |

----------
# experiment-notes: NCI Yeast Anticancer Drug Screen. Data for the mlh1 rad18 strain (AID 175)
# condition: S. cerevisiae mlh1 rad18 strain growth inhibition; at 50.0 µM; stronger effect = higher value
About 79,000 compounds went through this panel and 15% of them were active in at least one assay; those are over-represented in the sample as a whole.
Overview of reported growth inhibition across a group of compounds:
measurement-kind: growth inhibition (%)

| compound | readout-number |
| --- | --- |
| CCC(c1ccc(OC)cc1)C1NC(=S)NC1=O (stereo not given) | 11.6 |
| COC(=O)c1nc(N)nc(C(=O)OC)c1C(=O)c1ccc([N+](=O)[O-])cc1 | -41 |
| Cc1cc(C)c(NC(=O)CC#N)cc1C | -6.6 |
| C(=N\N1CCN(/N=C/c2cccc3ccccc23)CC1)/c1cccc2ccccc12 | 3.4 |
| COC(c1ccc(C(C)(C)C)cc1)(c1ccc(C(C)(C)C)cc1)c1cc(C(O)(c2cc(C(OC)(c3ccc(C(C)(C)C)cc3)c3ccc(C(C)(C)C)cc3)c(C)cc2C)c2cc(C(OC)(c3ccc(C(C)(C)C)cc3)c3ccc(C(C)(C)C)cc3)c(C)cc2C)c(C)cc1C | -9.05 |

----------
# experiment-notes: NCI Yeast Anticancer Drug Screen. Data for the mec2-1 strain (AID 157)
# condition: S. cerevisiae mec2-1 strain, at 50.0 µM, stronger effect = higher value
The panel holds about 79,000 compounds, 15% with a hit somewhere; the sample as a whole holds those more often.

| compound | unit-annotation | growth inhibition |
| --- | --- | --- |
| COC(=O)c1nnn(-c2cccc(Cl)c2)c1C(=O)c1ccc(Cl)c(Cl)c1 | % | 5.55 |
| CC(C(=O)O)C(C)C(=O)Nc1ccccc1 (stereo unspecified) | % | 6.15 |
| Cn1c(=O)c2[nH]c(=S)n(C)c2n(C)c1=O | % | -8.35 |
| C(=C\c1ccccn1)/c1ccc(/C=C/c2ccccn2)cc1 | % | 18.6 |
| CC1(C)OC(=O)N=C1c1ccc(Cl)cc1 | % | -10 |
| CC(C)=Cc1cc(-c2cc(C=C(C)C)on2)no1 | % | -7.05 |
| CC1=C(O)c2cn(C)cc2C(=O)C1=O | % | 24.9 |
| CN(C)N=Nc1c(Cl)cccc1Cl | % | 26.7 |
| COC(=O)Cc1ccc2c(c1)Sc1ccc(CC(=O)OC)cc1N2C | % | -43.8 |
| COC(=O)CC(=O)C=P(c1ccccc1)(c1ccccc1)c1ccccc1 | % | -4.15 |
| CC(=O)OC1/C=C(\C)C(OC(C)=O)C/C=C(/C)CCC2C(/C=C/C1=O)C2(C)C (stereo unspecified) | % | 74.4 |
| Cc1cc(C(C)(C)C)ccc1S(=O)(=O)/C=C/c1ccccc1 | % | -23.1 |
| O=[N+]([O-])c1ccc(N/N=C/c2ccccc2Cl)cc1 | % | 12.4 |
| CCOC(=O)c1c(O)c(Cc2ccccc2)c(=O)n2c1[nH]c1cc(C)c(C)cc12 | % | 26.2 |
| COc1ccc(C(=O)CC(Sc2ccccc2N)c2ccc(OC)cc2)cc1 (stereo unspecified) | % | -17.9 |
| O=C(O)CCN1C(=S)CSC1=S | % | -18.4 |
| O=C(CCC(=O)C1Cc2ccccc2C1=O)Nc1cccc(C(F)(F)F)c1 (stereo unspecified) | % | -42 |
| O=c1[nH]nc(Cc2ccc(Cl)cc2)n1CCO | % | 5.95 |
| Cc1cc([O-])c([I+]c2ccccc2)c(=O)[nH]1 | % | 66.8 |
| CN(Cc1ccc(Cl)cc1)C(=O)NCCCCCCNC(=O)N(C)Cc1ccc(Cl)cc1 | % | 96.6 |
| COc1ccccc1OC(=O)Nc1ccc(S(=O)(=O)N(C)C)cc1 | % | 8.5 |
| CC(=O)/C(=C/n1ccc(=O)[nH]c1=S)C(=O)Nc1ccccc1 | % | -20.5 |
| O=C(CC(C(=O)c1ccsc1)c1cccs1)c1ccsc1 (stereo unspecified) | % | -19.2 |
| COc1cc(C(c2ccc(N(Cc3ccccc3)Cc3ccccc3)cc2NC(C)=O)c2ccc(N(Cc3ccccc3)Cc3ccccc3)cc2NC(C)=O)ccc1O | % | 2.05 |
| CC1(C)OC2C(CO)OC(n3ccc(N)nc3=O)C2O1 (stereo unspecified) | % | -12 |
| CCOC(=O)C1(C(=O)OCC)CSC1 | % | -5.45 |
| CCOC(=O)NC(C(=O)OCC)(N1CCN(c2cc3c(cc2F)c(=O)c(C(=O)O)cn3CC)CC1)C(F)(F)F (stereo unspecified) | % | -25.2 |
| C#CC1(c2ccccc2)OCCO1 | % | 17.4 |
| O=c1cc(-c2ccccc2)nc(Sc2ccc([N+](=O)[O-])cc2[N+](=O)[O-])[nH]1 | % | 0.2 |
| Clc1ccccc1C(Cl)c1ccccc1 (stereo unspecified) | % | -14.2 |
| CC(=O)O[C@H]1[C@@H]2[C@@H]3[C@@H](C[C@H]1C)[C@@H](C)CO[C@@]1(C)CC/C=C(/C)C[C@@H]2O[C@@H]31 | % | -1.75 |
| O=C1NC(=O)C(c2ccc(Cl)cc2)N1 (stereo unspecified) | % | -10.8 |
| CCC(C)(O)c1cn(-c2cccc(S(=O)(=O)O)c2)nn1 (stereo unspecified) | % | -10.2 |
| O=C(N/N=C/c1ccccc1)c1c(F)c(F)c(F)c(F)c1F | % | 9 |
| CC(=O)c1c(O)c(Nc2ccccc2)cc2nc3ccccc3nc12 | % | 3.95 |
| Cc1ccccc1N(CC1CO1)CC1CO1 (stereo unspecified) | % | -18.1 |
| CC(C)C(=O)OCc1ccccc1 | % | -5.7 |
| CC(=O)c1ccc(C(=O)c2cccnc2)cc1 | % | -9.2 |
| Cc1cccc(C=NC23CC4CC(CC(C4)C2)C3)c1 | % | -40.5 |
| CCOC(=O)CNC(=O)C(CSSCC(NC(=O)OCc1ccccc1)C(=O)OC)NC(=O)C(NC(=O)OCc1ccccc1)C(C)C (stereo unspecified) | % | 21.3 |
| c1ccc(-c2nc3ccccc3nc2-c2ccc(Cc3ccc(-c4nc5ccccc5nc4-c4ccccc4)cc3)cc2)cc1 | % | 19.1 |
| Cc1cc(C(N)=O)c2ccccc2n1 | % | -47.2 |
| COc1cccc(-c2nnc(-c3cccc(OC)c3)o2)c1 | % | -12.1 |
| Nc1nc(=O)n(CCCOc2cccc(Cl)c2)cc1-c1ccc(Cl)c(Cl)c1 | % | 49.4 |
| Clc1cccc(C=NC23CC4CC(CC(C4)C2)C3)c1Cl | % | -36.5 |
| Nc1nc(-c2ccccc2)ns1 | % | -44.1 |
